experiment: Inhibition of hedgehog signaling in mouse C3H10T1/2 cells assessed as reduction in Gli1 mRNA level at 5 uM after 24 hrs by quantitative PCR analysis relative to control; type: cell-based; settings: C3H 10T1/2, values are per cent of control
Please respond with Condition met when measured response, % of control is strictly beneath 50%, and with Condition not met in all other cases.

Completed entries (count: 5):
INSERT INTO results (test_smiles, class_assignment) VALUES
  ('CC(C)CCC[C@@H](C)[C@H]1CC[C@H]2/C(=N/O)CCC[C@]12C', 'Condition not met'),
  ('CCOC(=O)/C=C1\CCC[C@]2(C)[C@@H]([C@H](C)CCCC(C)C)CC[C@@H]12', 'Condition not met'),
  ('CC(C)CCC[C@@H](C)[C@H]1CC[C@H]2C(c3cccc(O)c3)=CCC[C@]12C', 'Condition met'),
  ('CC(C)CCC[C@@H](C)[C@H]1CC[C@H]2/C(=C/C(=O)Nc3ccccc3)CCC[C@]12C', 'Condition met'),
  ('CC(C)CCC[C@@H](C)[C@H]1CC[C@H]2[C@@H](OC(=O)CCc3cccc(O)c3)CCC[C@]12C', 'Condition met');

Task: # check: response, % of control < 50% for CC(C)CCC[C@@H](C)[C@H]1CC[C@H]2[C@H](C(=O)c3cccc(O)c3)CCC[C@]12C
Output: Condition met

Task: Strictly below 50%: is that where response, % of control of CC(C)CCC[C@@H](C)[C@H]1CC[C@H]2[C@@H](OC(=O)c3cccc(O)c3)CCC[C@]12C sits?
Output: Condition met

Task: Just wondering, is response, % of control of CC(C)CCC[C@@H](C)[C@H]1CC[C@H]2/C(=C/C(=O)Nc3ccc(O)cc3)CCC[C@]12C below 50%?
Output: Condition met

Task: Is the reported response, % of control for CC(C)CCC[C@@H](C)[C@H]1CC[C@H]2[C@H](O)CCC[C@]12C strictly below 50%?
Output: Condition not met

Task: Is 50% strictly greater than the molecule's reported response, % of control? molecule: CC(C)CCC[C@@H](C)[C@H]1CC[C@H]2[C@H](OC(=O)c3cccc(O)c3)CCC[C@]12C
Output: Condition met

Task: Given the entry CC(C)CCC[C@@H](C)[C@H]1CC=C2C(=O)CCC[C@@]21C , would its reported response, % of control be below 50%?
Output: Condition not met

Task: For CC(C)CCC[C@@H](C)[C@H]1CC[C@H]2[C@@H](Nc3cccc(O)c3)CCC[C@]12C , is the recorded response, % of control below the cut-off of 50%?
Output: Condition met

Task: Quick check: response, % of control of C=C1CC[C@H](O)C/C1=C/C=C1\CCC[C@]2(C)[C@@H]([C@H](C)CCCC(C)C)CC[C@@H]12 under 50%?
Output: Condition met

Task: Is response, % of control of CC(C)CCC[C@@H](C)[C@H]1CC[C@@H]2[C@]1(C)CCC[C@@]2(O)c1cccc(O)c1 strictly below 50%?
Output: Condition met

Task: A record lists CC(C)CCC[C@@H](C)[C@H]1CC[C@H]2[C@@H](Nc3ccccc3O)CCC[C@]12C . Is its response, % of control below 50%?
Output: Condition met

Task: Say whether its response, % of control is strictly beneath 50%. Entry: CC(C)CCC[C@@H](C)[C@H]1CC[C@H]2[C@@H](OC(=O)CCc3ccccc3O)CCC[C@]12C
Output: Condition met
